assay overview: Pharmacokinetics of SNS-595 in cancer patients
Assay type: in vivo, human
cond: human, intravenous, plasma, dose 3 mg/m2, mean, read-out: MRTINF_obs
endpoint: MRT inf (h)
The response must be a number in h with no trailing unit.

MRT inf in this record for `CN[C@H]1CN(c2ccc3c(=O)c(C(=O)O)cn(-c4nccs4)c3n2)C[C@@H]1OC` : 22
